Collected literature values of Ki measured for Prothrombin (Homo sapiens, UniProt P00734).

COMPOUND: [O-][n+]1ccccc1C(F)(F)CNc1nccc2oc(Cc3cccc(Cl)c3)nc12
TARGET OR SYSTEM: Prothrombin (Homo sapiens, UniProt P00734)
VALUE PREFIX: =
Ki [nM]: 15
--
COMPOUND: N#Cc1cc(Cc2c(-c3ccc(OCCN4CCCC4)cc3)sc3cc(O)ccc23)ccc1CN1CCCC1
TARGET OR SYSTEM: Prothrombin (Homo sapiens, UniProt P00734)
VALUE PREFIX: =
Ki [nM]: 7.2
--
COMPOUND: Cc1cc(OCC/C=N/N=C(N)N)cc(OS(=O)(=O)c2cccc(C)c2)c1
TARGET OR SYSTEM: Prothrombin (Homo sapiens, UniProt P00734)
VALUE PREFIX: =
Ki [nM]: 6
--
COMPOUND: O=C1Cn2c(Cl)cnc(c2=O)N[C@@H](Cc2ccccc2)NCCCCCCOc2ccc(Cl)cc2CN1
TARGET OR SYSTEM: Prothrombin (Homo sapiens, UniProt P00734)
VALUE PREFIX: =
Ki [nM]: 0.13
--
COMPOUND: COC(=O)[C@H](Cc1cccc(C(=N)N)c1)[C@@H](CC1CCCCC1)NC(=O)c1ccc(-c2cccc(CN)c2)cc1
TARGET OR SYSTEM: Prothrombin (Homo sapiens, UniProt P00734)
VALUE PREFIX: =
Ki [nM]: 650
--
COMPOUND: COc1ccc(C2=NOC(CNS(C)(=O)=O)(C(=O)Nc3ccc(-c4ccccc4S(N)(=O)=O)cn3)C2)cc1 (centres undefined)
TARGET OR SYSTEM: Prothrombin (Homo sapiens, UniProt P00734)
VALUE PREFIX: >
Ki [nM]: 6300
--
COMPOUND: CC(C)(C)OC(=O)N[C@H](Cc1ccccc1)C(=O)N1CCC[C@H]1C(=O)NCC#Cc1ccncc1
TARGET OR SYSTEM: Prothrombin (Homo sapiens, UniProt P00734)
VALUE PREFIX: >
Ki [nM]: 20000
--
COMPOUND: Cn1cncc1CCNC(=O)CN1CCN(S(=O)(=O)c2cc3ccc(Cl)cc3s2)CC1=O
TARGET OR SYSTEM: Prothrombin (Homo sapiens, UniProt P00734)
VALUE PREFIX: >
Ki [nM]: 4000
--
COMPOUND: N=C(N)NCCC[C@H](NC(=O)[C@@H]1CCCN1C(=O)[C@H](CO)NS(=O)(=O)c1cccc2ccccc12)C(=O)c1nc2ccccc2s1
TARGET OR SYSTEM: Prothrombin (Homo sapiens, UniProt P00734)
VALUE PREFIX: =
Ki [nM]: 0.8
